Target: SARS-CoV-2 3CLpro (Severe acute respiratory syndrome coronavirus 2)
Test: biochemical
Assay type: biochemical
Set-up: unit not given here
Details: LOPAC1280 primary screen with protease, 5 µM compound, mean of the two replicates
Counter-ions that a name gives are not always drawn.
readout.type: mean (LOPAC_screen_w_protease)

| compound | experimental.target | readout.type | measured.result |
| --- | --- | --- | --- |
| CCCCCCCC/C=C\CCCCCCCC(=O)NCCc1ccc(O)c(O)c1 [N-Oleoyldopamine] | SARS-CoV-2 3CLpro (Severe acute respiratory syndrome coronavirus 2) | mean (LOPAC_screen_w_protease) | 2.025 |
| CC1(C(=O)O)C2CCC(O2)C1(C)C(=O)O (stereo not shown) [Cantharidic Acid] | SARS-CoV-2 3CLpro (Severe acute respiratory syndrome coronavirus 2) | mean (LOPAC_screen_w_protease) | 1.914 |
| Cc1cn([C@H]2C=C[C@@H](CO)O2)c(=O)[nH]c1=O [2',3'-didehydro-3'-deoxythymidine] | SARS-CoV-2 3CLpro (Severe acute respiratory syndrome coronavirus 2) | mean (LOPAC_screen_w_protease) | 1.906 |
| NC(=NCc1ccccc1)NC(=O)c1nc(Cl)c(N)nc1N [Benzamil hydrochloride] | SARS-CoV-2 3CLpro (Severe acute respiratory syndrome coronavirus 2) | mean (LOPAC_screen_w_protease) | 1.743 |

----------
Target: UniProtKB P0DTD1
Experiment: biochemical
Format: biochemical
Details: 4 h, sheet LOPAC_screen_w_protease; primary screen with protease, compound at 5 µM; replicate 1; read-out: Replicate_1
Structures can show the parent of a compound that is named as a salt.
readout.type: inhibition at 5 µM (%)

| molecule | experimental.target | measured.result |
| --- | --- | --- |
| CCn1ccnc1CC1COc2ccccc2O1 (stereo not drawn) [Imiloxan hydrochloride] | UniProtKB P0DTD1 | 4.11 |
| COc1cc(CNC(=O)CCCCCCC(C)C)ccc1O [Dihydrocapsaicin] | UniProtKB P0DTD1 | 4.91 |
| O=C(O)c1cc(O)cc(C(=O)O)n1 | UniProtKB P0DTD1 | 2.7 |
| N#CC(C#N)=Cc1ccc(O)c(O)c1 | UniProtKB P0DTD1 | 2.09 |
| CCCC1O[C@@H]2C[C@H]3[C@@H]4CCC5=CC(=O)C=C[C@]5(C)[C@H]4[C@@H](O)C[C@]3(C)[C@]2(C(=O)CO)O1 (stereo partly drawn) [Budesonide] | UniProtKB P0DTD1 | 1.81 |
| NS(=O)(=O)c1cc2c(cc1Cl)NC(C1CC3C=CC1C3)NS2(=O)=O (stereo not drawn) [Cyclothiazide] | UniProtKB P0DTD1 | 4.25 |
| COC(=O)C1=C(C)NC(C)=C(C(=O)OCCN(C)Cc2ccccc2)C1c1cccc([N+](=O)[O-])c1 (stereo not drawn) [Nicardipine hydrochloride] | UniProtKB P0DTD1 | 2.03 |
| CN1[C@@H]2CC[C@H]1C[C@@H](OC(c1ccccc1)c1ccccc1N)C2 (stereo partly drawn) | UniProtKB P0DTD1 | 2.54 |
| N#C/C(=C\c1ccc(O)c(O)c1)C(=O)NCc1ccccc1 | UniProtKB P0DTD1 | 3.18 |
| OC(CN1CCC(Cc2ccc(F)cc2)CC1)c1ccc(Cl)cc1 (stereo not drawn) | UniProtKB P0DTD1 | 2.73 |
| CCC(C)N(C)C(=O)c1cc2ccccc2c(-c2ccccc2Cl)n1 (stereo not drawn) | UniProtKB P0DTD1 | 1.87 |
| CC(=O)CCCCn1c(=O)c2c(ncn2C)n(C)c1=O | UniProtKB P0DTD1 | 2.78 |
| CN1[C@@H]2CC[C@H]1C[C@@H](OC(c1ccccc1)c1ccccc1)C2 [Benztropine mesylate] | UniProtKB P0DTD1 | 0.913 |
| CSC(N)=NCCC[C@H](N)C(=O)O [S-Methyl-L-thiocitrulline acetate] | UniProtKB P0DTD1 | 2.21 |
| CCOC(=O)[N-]c1cn(N2CCOCC2)n[o+]1 | UniProtKB P0DTD1 | 1.44 |
| COc1cccc(OC)c1OCCNCC1CSc2ccccc2O1 (stereo not drawn) [Benoxathian hydrochloride] | UniProtKB P0DTD1 | 1.96 |
| N=C(N)NC(=O)Cc1c(Cl)cccc1Cl [Guanfacine hydrochloride] | UniProtKB P0DTD1 | 3.74 |
| O=c1n(CCCN2CCN(c3cccc(Cl)c3)CC2)nc2ccccn12 [Trazodone hydrochloride] | UniProtKB P0DTD1 | 3.03 |

----------
Collected inhibition at 5 µM values appear next to each entry.
Target: SARS-CoV-2 3CLpro (Severe acute respiratory syndrome coronavirus 2)
Experiment: biochemical
Format: biochemical
Conditions: 4 h, sheet LOPAC_screen_w_protease; primary screen at 5 µM; replicate 1; read-out: Replicate_1 (LOPAC screen with protease)
readout.type: inhibition at 5 µM

| molecule | readout.type | measured.result |
| --- | --- | --- |
| O=C(N[C@@H](Cc1ccccc1)C(=O)CCl)OCc1ccccc1 | inhibition at 5 µM | 100% |
| CC[N+](CC)(CC)CCOc1ccc(/C=C/c2ccccc2)cc1 | inhibition at 5 µM | 10.3% |
| COc1ccc2c(c[n+](C)c3c4cc5c(cc4ccc23)OCO5)c1OC [Chelerythrine chloride] | inhibition at 5 µM | 12.7% |
| COc1ccc(C(=O)N2CCCC2=O)cc1 | inhibition at 5 µM | 9.93% |
| Cn1cc(C2=C(c3ccc(Cl)cc3Cl)C(=O)NC2=O)c2ccccc21 | inhibition at 5 µM | 5.91% |
| N#CC(C#N)=Cc1cc(O)c(O)c(O)c1 | inhibition at 5 µM | 10.5% |
| C[N+](C)(C)CC#CCN1CCCC1=O [Oxotremorine methiodide] | inhibition at 5 µM | 7.16% |

----------
Target: SARS-CoV-2 3CLpro (Severe acute respiratory syndrome coronavirus 2, UniProt P0DTD1)
Assay: biochemical
Assay type: biochemical
Conditions: 4 h, LOPAC1280 primary screen with protease, 5 µM compound, replicate 1; read-out: Replicate_1 (LOPAC_screen_w_protease)
Counter-ions that a name gives are not always drawn.
Criterion met means recorded inhibition at 5 µM is 2% or above; Criterion not met means it is below 2%.

| molecule | assigned.class |
| --- | --- |
| N[C@@H]1CON=C1O | Criterion met |
| CCN(CC)CCOC(=O)c1ccc(N)cc1 [Procaine hydrochloride] | Criterion not met |
| CC[C@H](NC(=O)c1c(C)c(-c2ccccc2)nc2ccccc12)c1ccccc1 | Criterion not met |
| CN(C)CCC=C1c2ccccc2COc2ccccc21 [Doxepin hydrochloride] | Criterion not met |
| CN1CCC(=C2c3ccccc3C=Cc3ccccc32)CC1 [Cyproheptadine hydrochloride] | Criterion met |
| Cc1cc(C)c(NC(=O)C[C@H](CC(=O)O)c2cccc3ccccc23)c(C(=O)N2CCC3(CCCC3)CC2)c1 | Criterion met |
| CC(C)C[C@H](NC(=O)[C@H](O)[C@H](N)Cc1ccccc1)C(=O)O [Epibestatin hydrochloride] | Criterion not met |
| O=c1[nH]c(=O)n([C@H]2C[C@H](O)[C@@H](CO)O2)cc1Br | Criterion not met |
| Cc1nc2c([nH]1)c(=O)n(C)c(=O)n2Cc1ccco1 | Criterion met |
| CN(C)CCOC(c1ccccc1)c1ccccc1 [Diphenhydramine hydrochloride] | Criterion met |

----------
Target: SARS-CoV-2 3CLpro (Severe acute respiratory syndrome coronavirus 2)
Test: biochemical
Assay type: biochemical
Set-up: unit not given here
Details: sheet LOPAC_screen_w_protease; LOPAC1280 primary screen with protease, 5 µM compound; mean of the two replicates

| compound | mean |
| --- | --- |
| COc1ccc2c(c1O)-c1cccc3c1[C@@H](C2)N(C)CC3.Cl [R(-)-Apocodeine hydrochloride] | 6.058 |
| COc1ccccc1N1CCN(CC(O)COc2cccc3ccccc23)CC1.Cl.Cl (stereo not shown) [Naftopidil dihydrochloride] | 6.057 |
| NC(N)=Nc1ccc2[nH]c3c(c2c1)C[C@@]1(O)[C@H]2Cc4ccc(O)c5c4[C@@]1(CCN2CC1CC1)[C@H]3O5.O=C(O)C(F)(F)F.O=C(O)C(F)(F)F | 5.687 |
| CCn1cc(C(=O)[O-])c(=O)c2ccc(C)nc21.[Na+] [Nalidixic acid sodium] | 4.611 |

----------
Quick reference for mean (LOPAC_screen_w_protease) among some compounds
Target: UniProtKB P0DTD1
Experiment: biochemical
Assay type: biochemical
Parameters: unit not given here
Settings: LOPAC1280 primary screen with protease, 5 µM compound, mean of two replicates
Where a name gives a salt, the structure may show the parent alone.

| compound | mean (LOPAC_screen_w_protease) |
| --- | --- |
| CCCCC[C@H](CC(=O)NO)C(=O)N[C@H](C(=O)N1CCC[C@H]1CO)C(C)C [Actinonin] | 1.4498 |
| NCCc1c[nH]c2ccc(O)cc12 [Serotonin hydrochloride] | 1.729 |
| CC(=O)C(C)=NO [2,3-Butanedione monoxime] | 1.644 |
| O=C(O)c1ccccc1Nc1cccc(OCc2ccc3ccccc3n2)c1 [SR 2640] | 1.4964 |
| CCCCCCCCCCCCCCCCCCOCC(COP(=O)([O-])OCC[N+](C)(C)C)OC (stereo not drawn) [ET-18-OCH3] | 1.443 |
| Cc1c(CC(C)(C)C(=O)O)n(Cc2ccc(Cl)cc2)c2ccc(F)cc12 [L-655,240] | 1.677 |
| CN(C)c1cc2c(Nc3ccc4c(cnn4Cc4ccccc4)c3)ncnc2cn1 [GW2974] | 1.489 |
| O=C(CCCN1CCC(O)(c2cccc(C(F)(F)F)c2)CC1)c1ccc(F)cc1 [Trifluperidol hydrochloride] | 1.525 |
| Cl.c1ccc2nc(C3=NCCN3)ccc2c1 [BU224 hydrochloride] | 1.603 |
